# SYSTEM TESTED: δ-opioid receptor (Mus musculus, UniProt P32300)
# Construct: NG108-15 cell membranes were purchased from Applied Cell Sciences (Rockville, Md.); host or cells: NG108-15 cell membranes (purchased)
# Sequence (P32300 whole entry): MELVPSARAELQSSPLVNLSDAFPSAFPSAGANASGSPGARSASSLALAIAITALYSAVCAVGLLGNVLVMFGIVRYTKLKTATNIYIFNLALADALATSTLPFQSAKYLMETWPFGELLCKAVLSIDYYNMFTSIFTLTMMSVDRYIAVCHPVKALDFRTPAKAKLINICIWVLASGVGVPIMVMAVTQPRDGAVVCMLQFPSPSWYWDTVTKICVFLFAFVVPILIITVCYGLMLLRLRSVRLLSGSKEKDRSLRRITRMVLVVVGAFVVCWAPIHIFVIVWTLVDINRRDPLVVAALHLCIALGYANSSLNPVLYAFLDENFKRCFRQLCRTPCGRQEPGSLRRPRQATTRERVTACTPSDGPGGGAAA
# METHOD DESCRIPTION: [35S]GTPγS binding assay in NG108-15 cell membranes (delta opioid functional assay)
# Type: biochemical
PARAMETER MEASURED: EC50
Give your result as the value with the unit written after it.

Input: Item COc1ccc(Oc2nc(-c3cncc(C#N)c3)cnc2N[C@H]2CC[C@@H](N)CC2)cc1 : provide EC50
Output: 95.2 nM

###

# SYSTEM TESTED: delta opioid receptor (Rattus norvegicus, UniProt P33533)
# Construct: from tissue; host or cells: forebrain of male Wistar rats
# Sequence (P33533 whole entry): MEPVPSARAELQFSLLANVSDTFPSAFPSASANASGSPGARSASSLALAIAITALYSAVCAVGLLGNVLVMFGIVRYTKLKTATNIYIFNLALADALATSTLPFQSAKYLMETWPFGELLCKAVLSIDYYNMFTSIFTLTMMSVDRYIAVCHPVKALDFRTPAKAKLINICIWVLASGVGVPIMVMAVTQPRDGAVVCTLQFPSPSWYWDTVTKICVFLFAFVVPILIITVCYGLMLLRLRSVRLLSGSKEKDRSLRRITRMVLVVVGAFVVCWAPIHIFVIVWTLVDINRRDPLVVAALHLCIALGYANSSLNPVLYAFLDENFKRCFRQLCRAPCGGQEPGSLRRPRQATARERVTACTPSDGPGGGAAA
# METHOD DESCRIPTION: Rat brain delta opioid receptor binding assay
# SETUP CONDITIONS: [3H]naltrindole ligand; read-out: δ-binding (Naltrindole ligand) Ki
Kindly state Ki for each of the entries shown.
Give your result as the value with the unit written after it.

Input: Item COc1ccc(Oc2nc(-c3cncc(C#N)c3)cnc2NC[C@@H]2CCCN2)cc1 : provide Ki
Output: 0.2 nM

Input: Item COc1ccc(Oc2nc(-c3cncc(C#N)c3)cnc2NC[C@@H]2CCCN2)c(F)c1 : provide Ki
Output: 0.2 nM

Input: Item Clc1cccc(Oc2nc(-c3cncnc3)cnc2NC[C@@H]2CCCN2)c1 : provide Ki
Output: 1.8 nM

Input: Item COc1ccc(Oc2nc(-c3cncnc3)cnc2NC[C@H](C)N)cc1 : provide Ki
Output: 0.6 nM

Input: Item COc1ccc(Cc2nc(-c3cncc(C#N)c3)cnc2NC[C@@H]2CCCN2)cc1 : provide Ki
Output: 2.4 nM

Input: Item N#CCc1ccc(Oc2nc(-c3cncc(C#N)c3)cnc2NC[C@@H]2CCCN2)cc1 : provide Ki
Output: 6.4 nM

Input: Item CC(=O)Nc1cccc(Oc2nc(-c3cncnc3)cnc2NC[C@@H]2CCCN2)c1 : provide Ki
Output: 4 nM

Input: Item N#Cc1cncc(-c2cnc(NC[C@@H]3CCCN3)c(Oc3ccc(OC(F)F)cc3)n2)c1 : provide Ki
Output: 0.3 nM

Input: Item COc1ccc(Oc2nc(-c3cncc(C#N)c3)cnc2N2CCNCC2)cc1 : provide Ki
Output: 0.1 nM

Input: Item N#Cc1cncc(-c2cnc(NC[C@@H]3CCCN3)c(Oc3ccc4occc4c3)n2)c1 : provide Ki
Output: 0.2 nM

Input: Item N#Cc1cncc(-c2cnc(NC[C@@H]3CCCN3)c(Oc3ccc(OC(F)(F)F)cc3)n2)c1 : provide Ki
Output: 1.4 nM

Input: Item CCc1ccc(Oc2nc(-c3cncc(C#N)c3)cnc2NC[C@@H]2CCCN2)cc1 : provide Ki
Output: 0.5 nM

Input: Item N#Cc1ccc(Oc2nc(-c3cncnc3)cnc2NC[C@@H]2CCCN2)cc1 : provide Ki
Output: 76.4 nM

Input: Item COc1ccc(Oc2nc(-c3cncnc3)cnc2NCC2(N)CCCC2)cc1 : provide Ki
Output: 2.9 nM

Input: Item COc1ccc(Cc2nc(-c3cccnc3)cnc2NC[C@@H]2CCCN2)cc1 : provide Ki
Output: 15 nM

Input: Item COc1ccc(Oc2nc(-c3cncc(C#N)c3)cnc2NC[C@H](C)N)cc1 : provide Ki
Output: 0.3 nM

Input: Item COc1ccc(Oc2nc(-c3cccnc3)cnc2N2CCNCC2)cc1 : provide Ki
Output: 0.3 nM

Every entry's value here was drawn from patent US8183371B2.
